Measured Target: T1, corticotropin-releasing hormone (CRH) peptide (human and mouse (same sequence), not fully specified)
T1 peptide: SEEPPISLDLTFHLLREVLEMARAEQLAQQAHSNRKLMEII
Assay Summary: cell-based or functional assay
For each entry below, report its hCRHR1 Luciferase Reporter Assay IC50 value.
Please give a number only; it is taken to be in nM.

Suppose we examine the binder PR302309-4 (antibody, human IgG1, kappa, V domains shown) VH: QIQLVQSGPELKKPGETVKISCKASGYTFTNYGMNWVKQAPGKVLKWMGWINTYTGEPIYTDDFKGRFAFSLETSASTAYLQINNLKNEDTATYFCSRSTMITTGGVFAYWGQGTLVTVSA VL: DVVMTQTPLSLSVTPGQPASISCRSSQTIVHSDGNTYLEWYLQKPGQSPQLLIYKVSNRFSGVPDRFSGSGSGTDFTLKISRVEAEDLGVYYCFQGSHVPWTFGGGTKVEIKR ; what hCRHR1 Luciferase Reporter Assay IC50 value has been reported? 1.26

Do the same for PR302309-18 (antibody, human IgG1, kappa, V domains shown) VH: QVQLVQSGAEVKKPGASVKVSCKASGYTFTNYGMNWVRQAPGQRLEWMGWINTYTGEPIYTDDFKGRVTITRDTSASTAYMELSSLRSEDTAVYYCARSTMITTGGVFAYWGQGTLVTVSS VL: DVVMTQSPLSLPVTLGQPASISCRSSQTIVHSDGNTYLEWYQQRPGQSPRLLIYKVSNRFSGVPDRFSGSGSGTDFTLKISRVEAEDLGVYYCFQGSHVPWTFGGGTKVEIKR please 1.73

Next binder: PR302309-9 (antibody, human IgG1, kappa, V domains shown) VH: QIQLVQSGSELKKPGASVKVSCKASGYTFTNYGMNWVRQAPGQGLEWMGWINTYTGEPIYTDDFKGRFVFSLDTSVSTAYLQISSLKAEDTAVYYCSRSTMITTGGVFAYWGQGTLVTVSS VL: DIVMTQTPLSLSVTPGQPASISCRSSQTIVHSDGNTYLEWYLQKPGQSPQLLIYKVSNRFSGVPDRFSGSGSGTDFTLKISRVEAEDVGVYYCFQGSHVPWTFGGGTKVEIKR 6.08

Try PR302309-17 (antibody, human IgG1, kappa, V domains shown) VH: QVQLVQSGSELKKPGASVKVSCKASGYTFTNYGMNWVRQAPGQGLEWMGWINTYTGEPIYTDDFKGRFVFSLDTSVSTAYLQISSLKAEDTAVYYCARSTMITTGGVFAYWGQGTLVTVSS VL: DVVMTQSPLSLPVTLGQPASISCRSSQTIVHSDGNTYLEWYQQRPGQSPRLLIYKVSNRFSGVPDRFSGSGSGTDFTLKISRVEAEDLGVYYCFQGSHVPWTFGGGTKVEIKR next. 6.69

Then this binder: PR302309-7 (antibody, human IgG1, kappa, V domains shown) VH: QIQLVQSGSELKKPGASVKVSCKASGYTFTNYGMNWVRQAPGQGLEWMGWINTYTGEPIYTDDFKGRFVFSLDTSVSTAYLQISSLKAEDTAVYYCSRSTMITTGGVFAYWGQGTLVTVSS VL: DVVMTQSPLSLPVTLGQPASISCRSSQTIVHSDGNTYLEWFQQRPGQSPRRLIYKVSNRFSGVPDRFSGSGSGTDFTLKISRVEAEDVGVYYCFQGSHVPWTFGGGTKVEIKR 6.38
